Values from patent US5750700A

- study system: D2 and D3 receptor (rat striatal homogenates)
- test name: D2 and D3 receptor binding activity: displacement of 3H-raclopride in rat striatal homogenates
- stated conditions: 0.5 nM 3H-raclopride, nonspecific binding 10^-4M dopamine
Structures can show the parent of a compound that is named as a salt.
Measured pIC50, listed per entry for reference.
Scale: negative log10 of molar concentration, which is what pIC50 denotes.

Recorded pIC50, per entry:
>  <compound>
c1ccc(N2CCN(Cc3cn(-c4ccccc4)cn3)CC2)cc1 [Compound 3, dihydrochloride]

>  <recorded metric>
pIC50

>  <result number>
8.22

$$$$
>  <compound>
c1ccc(C2CCN(Cc3cn(-c4ccccc4)cn3)CC2)cc1 [Compound 2, dihydrochloride]

>  <recorded metric>
pIC50

>  <result number>
8.52

$$$$
>  <compound>
c1ccc(CC2CCN(Cc3cn(-c4ccccc4)cn3)CC2)cc1

>  <recorded metric>
pIC50

>  <result number>
6.85

$$$$

So what does the record say about pIC50 for Fc1ccc(N2CCN(Cc3cn(-c4ccccc4)cn3)CC2)cc1 [Compound 6, dihydrochloride] ? 6.71
